B1: unnamed (parent)
chain 1: MAAQNEQRPERIKTTPYLEGDVLSSDSGPLLSVFALQEIMQKVRQVQADYMTATREVDFTVPDVQQILDDIKALAAAQVYKIVKVPSTSFRHIVTQSRDRVLRVDTYYEEMSQVGDVITEDEPEKFYSTIIKKVRFIRGKGSFILHDIPARDHRGMEVAEPEVLGVEFKNVLPVLTAEHRAMIQNALDGSIIENGNVATRDVDVFIGACSEPFYRIYNRFQGYIEAVQLQELRNSIGWLERLGQRKRITYSQEVLTDFRRQDMIWVLALQLPVNPQVVWDVPRSSIANLIMNIATCLPTGEYIAPNPRISSITLTQRITTTGPFAILTGSTPTAQQLNDVRKIYLALMFPGQIILDLKIDPGERMDPAVRMVAGVVGHLLFTAGGRFTNLTQNMARQLDIALNDYLLYMYNTRVQVNYGPTGEPLDFQIGRNQYDCNVFRADFATGTGYNGWATIDVEYRDPAPYVHAQRYIRYCGIDSRELINPTTYGIGMTYHCYNEMLRMLVAAGKDSEAAYFRSMLPFHMVRFARINQIINEDLHSVFSLPDDMFNALLPDLIAGAHQNADPVVLDVSWISLWFAFNRSFEPTHRNEMLEIAPLIESVYASELSVMKVDMRHLSLMQRRFPDVLIQARPSHFWKAVLNDSPEAVKAVMNLSHSHNFINIRDMMRWVLLPSLQPSLKLVLEEEAWAAANDFEDLMLTDQVYMHRDMLPEPRLDDIERFRQEGFYYTNMLEAPPEIDRVVQYTYEIARLQANMGQFRAALRRIMDDDDWIGFGGVLRTVRVKFFDARPPDDILQGLPFSYDTNEKGGLSYATIKYATETTIFYLIYNVEFSNTPDSLVLINPTYTMTKVFINKRIVERVRVGQILAVLNRRFVAYKGKMRIMDITQSLKMGTKLAAPTV
chain 2: MSAAILLAPGDVIKRSSEELKQRQIQINLVDWMESEGGKEDKTEPKEESKAEGSKDGEGTQSESGQKEEGGKETKDADVDRRIHTAVGSGSGTKGSGERANENANRGDGKVGGGGGDADAGVGATGTNGGRWVVLTEEIARAIESKYGTKIDVYRDEVPAQIIEVERSLQKELGISREGVAEQTERLRDLRRKEKNGTHAKAVERGGRKQRKKAHGDAQREGVEEEKTSEEPARIGITIEGVMSQKKLLSMIGGVERKMAPIGARESAVMLVSNSIKDVVRATAYFTAPTGDPHWKEVAREASKKKNILAYTSTGGDVKTEFLHLIDHL

- Variants of: B1
- Assay notes: coimmunoprecipitation (IP anti-Flag MAb), immunoblot gray-value analysis
- Test context: with partner chain of the complex shown, five experiments, means ± SDs, parent: 100, read off a plot
Quantity: percent of parent

Worked cases, percent of parent given:
Field request: percent of parent | item: chain 2 Y285A
1 % of WT

percent of parent for chain 2 R281A ?
130 % of WT

// next entry
Suppose we examine the variant chain 2 Y285A F286A ; what percent of parent value has been reported?
2 % of WT
